system: COLO 205; assay: NCI tumour cell line growth inhibition, 48 h
Active and inactive are the calls of the source. No stated cut-off is given here; in the data, active = GI50 up to about 1.1 µM and inactive = higher.
Your answer must be one of the following: active, inactive

Example entries and their recorded answers appear below.
[ask] Write down the call the test reported for this compound. Item: O=C(CC1(O)C(=O)Nc2ccc(Br)cc21)c1cccc([N+](=O)[O-])c1 (stereo unspecified)
[reply] inactive

[ask] Tell me the assay call for Cc1cc(NS(=O)(=O)c2ccc(Nc3c4ccccc4nc4ccc(C(=O)Nc5ccc(S(N)(=O)=O)cc5)cc34)cc2)no1 please.
[reply] inactive

New cases:
[ask] GET /call?item= COc1c(F)c(F)c(C(=O)/C=C2\Nc3ccccc3NC2=O)c(F)c1F returns the recorded outcome of this test.
[reply] inactive

[ask] Entry CC[C@@]1(O)C(=O)OCc2c1cc1n(c2=O)Cc2c-1nc1ccccc1c2/C=N\NC(=O)C(N)CC(C)C (stereo partly specified) : call = ?
[reply] active

[ask] Hi, do you know how CC(C)C1C(=O)N(c2c(F)c(F)c(F)c(F)c2F)C(=S)N1CC[S+]([O-])c1ccccc1 (stereo unspecified) came out in this test?
[reply] inactive

[ask] Record lookup: outcome of this test for Clc1ccc2cccc3c2c1C1OC3c2ccccc21 (stereo unspecified) ?
[reply] inactive

[ask] Fill in: this test's call for NS(=O)(=O)c1nnc(NS(=O)(=O)c2cccc3cccnc23)s1 is ___
[reply] inactive

[ask] Dear colleague, could you share the recorded outcome for Cc1cccc(N(CCC#N)S(=O)(=O)c2ccccc2)c1 when you have a moment?
[reply] inactive
